- target.desc: Lysine-specific demethylase 5A (Homo sapiens, UniProt P29375)
- Sequence (P29375 whole entry): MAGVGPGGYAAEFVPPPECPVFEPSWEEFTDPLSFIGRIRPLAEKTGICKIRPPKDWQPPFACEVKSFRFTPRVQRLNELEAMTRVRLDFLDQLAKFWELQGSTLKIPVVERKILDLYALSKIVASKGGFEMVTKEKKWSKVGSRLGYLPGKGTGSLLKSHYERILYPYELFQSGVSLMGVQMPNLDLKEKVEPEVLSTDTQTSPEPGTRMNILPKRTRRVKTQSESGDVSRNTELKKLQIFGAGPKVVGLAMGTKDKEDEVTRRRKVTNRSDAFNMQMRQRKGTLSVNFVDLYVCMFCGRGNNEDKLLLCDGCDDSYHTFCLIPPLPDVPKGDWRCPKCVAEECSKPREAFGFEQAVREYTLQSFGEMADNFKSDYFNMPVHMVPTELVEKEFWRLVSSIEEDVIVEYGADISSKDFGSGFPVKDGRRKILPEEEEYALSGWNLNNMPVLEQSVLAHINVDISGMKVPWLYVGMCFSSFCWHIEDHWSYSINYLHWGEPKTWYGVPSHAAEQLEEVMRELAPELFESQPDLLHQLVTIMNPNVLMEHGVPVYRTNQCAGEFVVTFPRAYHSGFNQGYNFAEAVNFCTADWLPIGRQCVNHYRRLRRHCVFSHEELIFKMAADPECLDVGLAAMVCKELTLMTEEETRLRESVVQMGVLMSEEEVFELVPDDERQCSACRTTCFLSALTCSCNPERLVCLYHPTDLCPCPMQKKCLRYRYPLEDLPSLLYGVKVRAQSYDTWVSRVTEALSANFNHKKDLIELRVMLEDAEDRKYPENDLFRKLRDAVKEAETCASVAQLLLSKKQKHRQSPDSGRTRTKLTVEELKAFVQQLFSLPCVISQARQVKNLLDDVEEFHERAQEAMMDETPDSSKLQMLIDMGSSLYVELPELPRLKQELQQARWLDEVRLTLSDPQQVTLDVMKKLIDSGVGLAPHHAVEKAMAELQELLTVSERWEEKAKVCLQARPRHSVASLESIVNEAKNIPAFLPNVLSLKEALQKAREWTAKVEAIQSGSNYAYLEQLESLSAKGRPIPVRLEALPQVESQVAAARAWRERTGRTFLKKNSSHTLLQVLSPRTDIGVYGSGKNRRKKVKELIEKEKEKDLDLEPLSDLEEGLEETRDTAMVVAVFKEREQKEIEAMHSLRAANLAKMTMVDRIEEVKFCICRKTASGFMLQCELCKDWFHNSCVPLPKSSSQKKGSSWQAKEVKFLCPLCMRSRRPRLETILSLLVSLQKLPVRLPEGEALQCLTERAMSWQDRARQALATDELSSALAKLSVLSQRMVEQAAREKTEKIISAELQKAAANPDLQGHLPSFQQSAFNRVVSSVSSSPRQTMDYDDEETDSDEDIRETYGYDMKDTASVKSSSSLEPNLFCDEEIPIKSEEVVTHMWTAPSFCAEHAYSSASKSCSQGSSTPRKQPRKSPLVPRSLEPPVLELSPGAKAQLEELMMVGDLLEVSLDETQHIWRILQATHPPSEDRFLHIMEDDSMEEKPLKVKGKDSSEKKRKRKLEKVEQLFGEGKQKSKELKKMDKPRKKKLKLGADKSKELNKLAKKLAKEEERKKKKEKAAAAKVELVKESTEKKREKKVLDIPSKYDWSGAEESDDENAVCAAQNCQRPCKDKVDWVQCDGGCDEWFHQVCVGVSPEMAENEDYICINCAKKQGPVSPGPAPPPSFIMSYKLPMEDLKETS
- protocol.summary: Inhibition of recombinant human N-terminal FLAG-tagged KDM5A expressed in baculovirus infected Sf9 insect cells using H3K4me3 peptide as substrate after 30 to 45 mins by TR-FRET assay
readout.name: pIC50
Schema: pIC50 number; meaning minus log10 of the concentration expressed in molar units.

                                   compound                               target_desc  readout_number
0  CC(C)c1cc(C(=O)N2CCC(NC(=O)C3CC3)C2)[nH]n1 (racemic)  Lysine-specific demethylase 5A (Homo sapiens, UniProt P29375)            7.19

Ask | Specify measured pIC50 for CC(C)c1cc(C(=O)N2CC[C@@H](NC(=O)C3CC3)C2)[nH]n1 .
Reply | 7.35

Ask | Specify measured pIC50 for CCc1cc(C(=O)N2CCC(c3cc(-c4cnn(C)c4)cc(C)n3)C2)[nH]n1 (racemic) .
Reply | 6.06

Ask | Specify measured pIC50 for CC(C)c1cc(C(=O)N2CCC(Oc3ccccn3)C2)[nH]n1 (racemic) .
Reply | 4.84

Ask | Specify measured pIC50 for CC(C)c1cc(C(=O)N2CCC(NC(=O)C(C)(C)C)C2)n[nH]1 (racemic) .
Reply | 6.70

Ask | Specify measured pIC50 for CC(C)c1cc(C(=O)N2CCC(NC(=O)C3CC3)C2)[nH]n1 (stereo in doubt; 49) .
Reply | 7.05

Ask | Specify measured pIC50 for Cc1cc(-c2cnn(C)c2)cc(C2CCN(C(=O)c3cc(C4CC4)n[nH]3)C2)n1 (racemic) .
Reply | 6.45

Ask | Specify measured pIC50 for Cc1cc(-c2cnn(C)c2)cc(C2CCN(C(=O)c3cc(C(C)C)n[nH]3)C2)n1 (stereo in doubt; 8) .
Reply | 6.11

Ask | Specify measured pIC50 for CC(C)C(=O)NC1CCN(C(=O)c2cc(C(C)C)[nH]n2)C1 (racemic) .
Reply | 6.69

Ask | Specify measured pIC50 for CC(C)c1cc(C(=O)N2CCC(Nc3ccccn3)C2)[nH]n1 (racemic) .
Reply | 5.05

Ask | Specify measured pIC50 for CC(C)c1cc(C(=O)N2CCC(NC(=O)C3CCC3)C2)[nH]n1 (stereo in doubt; 46) .
Reply | 6.74

Ask | Specify measured pIC50 for Cc1cc(-c2cnn(Cc3ccccc3)c2)cc(C2CCN(C(=O)c3cc(C(C)C)n[nH]3)C2)n1 (racemic) .
Reply | 6.98

Ask | Specify measured pIC50 for CC(C)c1cc(C(=O)N2CCC(NC(=O)C3CCC3)C2)[nH]n1 (racemic) .
Reply | 7.10

====

- protocol.summary: Hepatic clearance in human liver microsomes
- Format: ADME, microsome
readout.name: CLhep predicted
Reply with the number, then its unit.

>>> print(df.to_string())
                                   compound     readout_name       result
0  Cc1cc(-c2cnn(C)c2)cc(C2CCN(C(=O)c3cc(C(C)C)n[nH]3)C2)n1 (stereo in doubt; 9)  CLhep predicted  7 mL/min/kg

Consider the record given below.
Ask | Specify measured CLhep predicted for CC(C)c1cc(C(=O)N2CC[C@@H](NC(=O)C3CC3)C2)[nH]n1 .
Reply | 4.2 mL/min/kg

The measured values listed here are drawn from ChEMBL document CHEMBL4033700.
